B1: LINE1-full (parent)
chain: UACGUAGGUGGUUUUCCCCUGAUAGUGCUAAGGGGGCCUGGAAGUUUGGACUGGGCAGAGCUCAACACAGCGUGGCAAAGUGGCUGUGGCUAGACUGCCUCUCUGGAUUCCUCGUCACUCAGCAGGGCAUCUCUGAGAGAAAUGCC

# Variants of: B1
# Test Details: self-cleavage, relative activity (ratio to wild type); higher = more cleavage; in vitro, sequencing; the parent is a self-cleaving ribozyme
# maps each entry to its self-cleavage

[
  {
    "Variant Annotation": "G53U C99U",
    "self-cleavage": 0.13
  },
  {
    "Variant Annotation": "G32U U134C",
    "self-cleavage": 0.74
  },
  {
    "Variant Annotation": "A42C A117G",
    "self-cleavage": 0.77
  },
  {
    "Variant Annotation": "U108C C131U",
    "self-cleavage": 2.2
  },
  {
    "Variant Annotation": "C90G A92G",
    "self-cleavage": 0.03
  },
  {
    "Variant Annotation": "U14A U132C",
    "self-cleavage": 1.35
  },
  {
    "Variant Annotation": "G36C A57G",
    "self-cleavage": 0.9
  },
  {
    "Variant Annotation": "U81C U115G",
    "self-cleavage": 1.1
  },
  {
    "Variant Annotation": "A57G A124U",
    "self-cleavage": 0.76
  },
  {
    "Variant Annotation": "A22G U45C",
    "self-cleavage": 1.33
  },
  {
    "Variant Annotation": "G33C G89U",
    "self-cleavage": 0.06
  },
  {
    "Variant Annotation": "A6G A94U",
    "self-cleavage": 0.3
  },
  {
    "Variant Annotation": "C19U A42C",
    "self-cleavage": 0.69
  },
  {
    "Variant Annotation": "A79G A136U",
    "self-cleavage": 0.91
  },
  {
    "Variant Annotation": "A2G G105A",
    "self-cleavage": 1.27
  },
  {
    "Variant Annotation": "U9A G55C",
    "self-cleavage": 0.09
  },
  {
    "Variant Annotation": "A42G A50G",
    "self-cleavage": 0.91
  },
  {
    "Variant Annotation": "U26C A78G",
    "self-cleavage": 1.1
  },
  {
    "Variant Annotation": "A59U U85C",
    "self-cleavage": 0.16
  },
  {
    "Variant Annotation": "U39A A43G",
    "self-cleavage": 0.63
  },
  {
    "Variant Annotation": "U96C U132C",
    "self-cleavage": 0.11
  },
  {
    "Variant Annotation": "U12A U87C",
    "self-cleavage": 0.25
  }
]

Reference source for all entries: the RNAGym collection of RNA variant scans (doi:10.7554/elife.90254)
